Data origin, for the record: the domain aggregation screens of Martell et al. (2025)

soluble fraction (log2) reference
# ASSAY_PROTOCOL: soluble fraction after stress (log2 fold change); higher = more stays soluble; pooled small domains, quantitative proteomics;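 further: 20 min heating vs room temperature control held 20 min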
# SETTINGS: stress: 75 degC
Form field (numeric): enter value without unit.

See these solved cases before continuing.
1. HMISEGDIIKGTVIDVNEEEVILDLKYYAQGVIKAENLSNDPDFLAAGKISVGDEIEATVIKMDDGEGNIE; 0.529
2. HMSDPASLQRRLMSDPELTARILDSPFTRSLLDDPNLLRQMVNANPQLRRAMDANPQLRHAL; -0.267
3. HMTNIDRLIGQTAIVKETINNKKEQGVVRINGMDWTARTEEIDEVILKGKPVEILDIQGIKLIVRKK; -0.545

Continue with the sequence presented below.
Fill in: soluble fraction (log2) of HMQRYFLEEAYQPSEKFELSAEAFHHIVHVMRMKPKDRVYLAFSDQQVIIAEITEITEEKVYLTEIEKEE is ___
-3.23
